Experiment: yeast display, Sf9 membrane polyspecificity reagent, FACS + sequencing; frameworks hold sequencing errors

[
  {
    "macromoleculeSequence": "QVQLVESGGGLVQAGGSLRLTCAASGRTLNPYAMGWYRQAPGKERELVAAITWRGGSTYYADSVKGRFTISRDNAKNTVYLQMNSLKPEDTAVYYCAAREYYYPYYYWGQGTQVTVSS",
    "polyreactivity (PSR sort gate)": "high polyreactivity"
  },
  {
    "macromoleculeSequence": "QVQLVESGGGLVQAGGSLRLSCAASGSIFSWNAMGWYRPAPGKEREFVAAISYGSTSTTYADSVKGRFTISRDNAKNTVYLQMNSLKPEDTAVYYCAAVPRRSGHQRWGATYYYWGQGTQVTVSS",
    "polyreactivity (PSR sort gate)": "high polyreactivity"
  },
  {
    "macromoleculeSequence": "QVQLVESGGGLVQAGGSLRLSCAASGFTFYGYAMGWYRQAPGKERELVAAISSSGTSTYYADSVKGRFTISRDNAKNTVYLQMNSLKPEDTAVYYCAALVRGAYGYGYWGQGTQVTVSS",
    "polyreactivity (PSR sort gate)": "high polyreactivity"
  },
  {
    "macromoleculeSequence": "QVQLVESGGGIVQAGGSLRLSCAASGFIFKKYVMGWYRQAPGKERELVAGISRSGGSTYYADSVKGRFTISRENAKITVYFQMNSLKPEDTAVYYGAAYIYQSPTRGGGYWGQGTQVTVSS",
    "polyreactivity (PSR sort gate)": "high polyreactivity"
  },
  {
    "macromoleculeSequence": "QVQLVESGGGLVQAGGSLRLSCAASGIIFRGYAMGWYREAPGKERELVAAIRDRGGSTYYADSVKGRFTISRDNAKNTVYLQMNSLKPEDTAVYYCATENRVYRHPGYDYDYWGQGTQVTVSS",
    "polyreactivity (PSR sort gate)": "low polyreactivity"
  },
  {
    "macromoleculeSequence": "QVQLVESGGGLVQAGGSLRLSCAASGSTFIRNAMGWYRQAPGKERELVAAINSGGNTYYADSVKGRFTISRDNAKNTVYLQMNSLKPEDTAVYYCAKAWGTYRSVYYRGYYWGQGTQVTVSS",
    "polyreactivity (PSR sort gate)": "high polyreactivity"
  },
  {
    "macromoleculeSequence": "QVQLVESGGGLVQAGGSLRLSCAASGRTFSENAMGWYRQAPGKERELVAAISGSGGRTYYADSVKGRFTISRDNAKNTVYLQMNILKPEDTAVYFCGKVTRYGSTYDYWGQGTQVTVSS",
    "polyreactivity (PSR sort gate)": "high polyreactivity"
  },
  {
    "macromoleculeSequence": "QVQLVESGGGLVQAGGSLRLSCAASGRTFYWYVMGWYRQAPGKERELVATITSGGSSNYADSVKGRFTISRDNAKNTVYLQRNSLKPEDTAVYYCNRDRLVRYEAEYDYWGQGTQVTVSS",
    "polyreactivity (PSR sort gate)": "low polyreactivity"
  },
  {
    "macromoleculeSequence": "QVQLVESGVGIVQAGGSLRLSCAASGSTFVSNAMGWYIPAPGKERELVAAISWTGGSTYYADSVKGRFTISRDNAKTTVYLQMNSLKPEDTAVYYCAAQLTDTYYQYDYWGQVTQVTVSS",
    "polyreactivity (PSR sort gate)": "low polyreactivity"
  },
  {
    "macromoleculeSequence": "QVQLVESGGGLVQAGGSLRLSCAASGYTFSYYAMGWYRQAPGKERELVARITYSGGSTYYADSVKGRFTISRDNAKNTVYLQMNSLKPEDTAVYFCAARLRYPYWYYNWGQGTQVTVSS",
    "polyreactivity (PSR sort gate)": "high polyreactivity"
  },
  {
    "macromoleculeSequence": "QVHLVESGGGLVQAGGSLRLSCAASGLIIYRYAMGWYRQAPGKERELVAAITTNGARTYYADSVKGRFTISRDNAKNTVYLQMTSLIPEDTAVYYCAAYGAGKFWAEHNYWGLGTQVTVSS",
    "polyreactivity (PSR sort gate)": "high polyreactivity"
  },
  {
    "macromoleculeSequence": "QVQLVESGVGLVQAGGSLRLSCAASGRIFPTYAMGWYRQAPGQERELVAGITSGGRTNYADSVKGRFTISRDNAKNTVYLQMNSLKPEDTAVYYCAKRVWPRDQYGKRNPRMDYWGQGTQVTVSS",
    "polyreactivity (PSR sort gate)": "high polyreactivity"
  },
  {
    "macromoleculeSequence": "QVQLVESGGCLVQAGGSLRLSCAASGSIFDVNAMGLYRQAPGKERELVAAISDSGGSTYYADSVKGRFTISRDNAKNTVYLQMNSLKPEDTAVYYCNADWSLYNYYDFDYWGQGTQVTVSS",
    "polyreactivity (PSR sort gate)": "low polyreactivity"
  },
  {
    "macromoleculeSequence": "QVQLVESGGGLVQAGGSLRLSCAASGRIFGYYAMGWYRQAPGKEREFVAGITQRTDSTYYADSVKGRFTISRDNAKNTVYLQMKSLKPEDTAVYYCAARGYGGYHWGYYWGQGTQVTVSS",
    "polyreactivity (PSR sort gate)": "high polyreactivity"
  },
  {
    "macromoleculeSequence": "QVQLVESGGGLVQAGGSLRLSCAASGSTFALYVMGRYRQAPGKERELVAAINSVGSKYYADSVKGRFTISRDNAKNTVYLQMHSLKPEDTSVYYCAAVSTYRPGWYYRYNYWGHGTQVTVSS",
    "polyreactivity (PSR sort gate)": "high polyreactivity"
  },
  {
    "macromoleculeSequence": "QVQLVESGGGLVQAGGSLRLSCAASGRTFLGYTMGWYRQAPGKEREFVAAITFSGDSTYYADSVKGRFTISRDNAKNTVYLQMNSLKPEDTAVYYCAARKKYYTYLFYYWGQGTQVTVSS",
    "polyreactivity (PSR sort gate)": "high polyreactivity"
  },
  {
    "macromoleculeSequence": "QVQLVESGGGLVQAGGSLRLSCAASGFTFRAYTMGWYRQAPGKERELVAAITYSGGPTYYADSVKGRFTISRDNAKNTVYLQMNSLKPEDTAVYYCAKRGWALSEYYYWGQGTQVTVSS",
    "polyreactivity (PSR sort gate)": "high polyreactivity"
  },
  {
    "macromoleculeSequence": "QVQLVESGGGLVQAGGSLRLSCAASGNILLFNAMGWYRQAPGKERELVATINQSGGRTYYADSVKGRFTISRDNAKNTVYLQMNSLKPEDTAVYYCAATRRYPPYFHHYDYWGQGTQVTVSS",
    "polyreactivity (PSR sort gate)": "low polyreactivity"
  },
  {
    "macromoleculeSequence": "QVQLVESGGGLVQAGGSLRLSCAASGRIFSGYAMGWYRQAPGKERELVATITSGGGTYYADSVKGRFTISRDNAKNTVYLQMNSLKPEDTAVYYCNAEKKGSFRKYNYWGQGTQVTVSS",
    "polyreactivity (PSR sort gate)": "low polyreactivity"
  },
  {
    "macromoleculeSequence": "QVQLVDSGGGLVQAGGSLRLSCAASGGTFDTYAMGWYRQAPGKERELVAVIRASGGDTYYADSVKGRFTISRDNAKNTVYLQMNSLKPEDTAVYYCAAVLPFKYDYWGQGTQVTVSS",
    "polyreactivity (PSR sort gate)": "low polyreactivity"
  },
  {
    "macromoleculeSequence": "QVQLVESRGCLVQAGGSLRLSCSASGYIFVYYAMGWYRQAPGKEWELVAAISRGGSTYYADSVKGRFTISRDNAKNTVYLQMNSLKPEDTAVYYCNKVLPYGREYGYCGQGTQVTVSS",
    "polyreactivity (PSR sort gate)": "high polyreactivity"
  }
]

* * *

Assay: yeast display, Sf9 membrane polyspecificity reagent, FACS + sequencing; frameworks hold sequencing errors

[
  {
    "macromoleculeSequence": "QVQLVESGGGLVQAGGSLRLSCASSGSIFRRYAMGWYRQATGKERELVAAISSNGGSTYYADSVKGRFTISRDNAKNTVYLQLNSLKPEDTAGYYCNAQVVHYRVSSVITYTIYDYWGQGTQVTVSS",
    "polyreactivity (PSR sort gate)": "high polyreactivity"
  },
  {
    "macromoleculeSequence": "QVQLVESGGGIVQAGGSLRLSIAASGNILNGNVMGWSRPEPGKERELVAAITSGGDTYYADSVKGRFTISRDNAKNTVYFQMNSLKPEDTAVYYCAADRPGQPKYEYWGQGTQVTVSS",
    "polyreactivity (PSR sort gate)": "low polyreactivity"
  },
  {
    "macromoleculeSequence": "QVQLVESGGGLVQAGGSLRLTCAASGGTFQYYSMGWYRQAPGKERELVAAITTSGGSTYYADSVKGRFTISRDNAKNTDYLQMNSLKPEDTAVYYCAAGRGYRGYVRYYYWGQGTQVTVSS",
    "polyreactivity (PSR sort gate)": "high polyreactivity"
  },
  {
    "macromoleculeSequence": "QVQLVESGGGLVQAGGSLRLSCAASGIIFDFYAMGWYRQAPGKERELVAAINSGSGSTYYADSVKGRFTISRDNAKNTVYLQMNSLKPEDTAVYYCAADGLSATLTWYSYDYWGQGTQVTVSS",
    "polyreactivity (PSR sort gate)": "low polyreactivity"
  },
  {
    "macromoleculeSequence": "QVQLVESGGGLVQAGGSLRLSCAASGLTFEKYSMGWYRQAPGKERELVAAISQDGGSTYYADSVKGRFTISRDNAKNTVYLQMNSVKPEDTAVYYCAAEDPDSWLPWDLFDYWGQGTQVTVSS",
    "polyreactivity (PSR sort gate)": "low polyreactivity"
  },
  {
    "macromoleculeSequence": "QVHLVESGGGLVQAGGSLRLSCAASGRTLYYYTMGWYRQAPGKERDLVAAIRWSTGSTYYADSVKGRFTISRDNAKNTVYLQMNSLKPEDTAVYYCNASRYQWAQSTEYDYWGQGTQVTVSS",
    "polyreactivity (PSR sort gate)": "high polyreactivity"
  },
  {
    "macromoleculeSequence": "QAQLVESGGGLVQAGGSLRLSCAASGRTSYRYVMGWYIQAPGKERELVAAISRGGRTYYADSVKGSFTISRDNAKYTVYLQMNSLNPEVTAVYYCNAAFGVYVATGDSFPRHKKFGFWGQGTQVTVSS",
    "polyreactivity (PSR sort gate)": "high polyreactivity"
  },
  {
    "macromoleculeSequence": "QVQLVESGGCLVQAGGSLRLSCAASGRISPDYAMGWYRQAPGTERELVATISSGAGTTYYADSVKGRFTISRDNAKNTVYLQMNSLKPEDTAVYYCAAEDPSEFDYWGQGTQVTVSS",
    "polyreactivity (PSR sort gate)": "low polyreactivity"
  },
  {
    "macromoleculeSequence": "QVQLVESGGGLVQAGGSLRLSCAASGSTSRYYDMGWYRQAPGKERELVAAITWSGGTTYYADSVKGRFTISRDNAKNTVYLQMDSLKPEDTAVYYCAVDSQTANDYDYWGQGTQVTVSS",
    "polyreactivity (PSR sort gate)": "low polyreactivity"
  },
  {
    "macromoleculeSequence": "QVQLVESGGGLVQPGGSLRLSCAASGRIFIVNAMGWYRQAPGKERELVAAISRRGGSTYYADSVKGRFTISRDIAKNTVYLQMNSLKPEDTAVYYCNAVGGRYTGWRYDYWGQGTQVTVSS",
    "polyreactivity (PSR sort gate)": "high polyreactivity"
  },
  {
    "macromoleculeSequence": "QVQLVESGGGLFQEGGSLRLSCAASGFTFLYYDMGWYRQAPGKERELVAAINSSGGGTYYADSVKGRFTISRDNAKNTVYLQMNSLKPEDTAVYYCAVSWSDGYDYWGQGTQVTVSS",
    "polyreactivity (PSR sort gate)": "high polyreactivity"
  }
]

src = the nanobody polyreactivity screen of Harvey et al. (2022)
